- Test system: Aspergillus terreus AT49
- measurement_protocol: MIC, YAG medium
- Assay type: cell-based
- measurement_parameters: Aspergillus terreus, 24 h at 35° C, MIC banded into grades, read-out: MIC grade, A. terreus 49
- Method: Between 1 and 5 mgs of compound were accurately weighed out into a sterile Eppendorf tube. The compound was dissolved in DMSO to give a solution containing 5 mg/mL. Tubes were stored at −20° C. until required. On the day of testing thawed solutions were vortex mixed to ensure homogeneity. […] This produced MIC plates with a drug range 50-0.05 mg/L and organism inocula of 1−2×10^4 cfu/mL for Aspergillus spp. […] Growth was assessed by monitoring the optical density at 485 nm for each well. […]
endpoint: MIC

Known results for compounds:
compound: CCCNC(=O)C(=O)c1cc(-c2ccccc2)cn1CCOC [Example 121]
tgt: Aspergillus terreus AT49
MIC: 1 to 10 µg/mL
//
compound: CC(=O)NCCn1c(C)cc(-c2ccccc2)c1C(=O)C(=O)Nc1ccc(N2CCN(c3cc(C)cc(C)n3)CC2)cc1 [Example 65]
tgt: Aspergillus terreus AT49
MIC: > 10 µg/mL
//
compound: Cc1cc(-c2ccccc2)c(C(=O)C(=O)Nc2ccc(N3CCN(CC(C)C)CC3)c(F)c2)n1C [Example 118]
tgt: Aspergillus terreus AT49
MIC: < 1 µg/mL

Each of the following entries comes with a recorded value; kindly state MIC for each.
1. Cc1cc(C)nc(N2CCN(c3ccc(NC(=O)C(=O)c4c(-c5ccco5)cc(C)n4C)cc3)CC2)c1 [Example 12]
2. Cc1cc(C)nc(N2CCN(c3ccc(NC(=O)C(=O)c4c(-c5ccccc5)cc(C)n4C)cc3O)CC2)c1 [Example 22]
3. Cc1cc(-c2ccccc2)c(C(=O)C(=O)Nc2ccc(N3CCN(c4ccccn4)CC3)cc2F)n1C [Example 95]
4. Cc1cc(C)nc(N2CCN(c3ccc(NC(=O)C(=O)c4c(-c5ccccc5)cc(C)n4C)cc3COCCN(C)C)CC2)c1 [Example 17]
5. COCCn1cc(-c2cccc(Cl)c2)cc1C(=O)C(=O)Nc1ccc(N2CCN(c3cc(C)cc(C)n3)CC2)cc1 [Example 71]
6. C=C(C)CN1CCN(c2ccc(NC(=O)C(=O)c3c(-c4ccccc4)cc(C)n3CCOC)c(F)c2)CC1 [Example 109]
7. Cc1cc(C)nc(N2CCN(c3ccc(NC(=O)C(=O)c4c(-c5ccccc5)cc(C)n4Cc4ccccn4)cc3)CC2)c1 [Example 91]

Found:
< 1 µg/mL
< 1 µg/mL
< 1 µg/mL
1 to 10 µg/mL
1 to 10 µg/mL
< 1 µg/mL
1 to 10 µg/mL

Measured values drawn from patent US8993574B2 for this set.
